B1: library; a variant is named by its letters at N, in order (parent)
chain: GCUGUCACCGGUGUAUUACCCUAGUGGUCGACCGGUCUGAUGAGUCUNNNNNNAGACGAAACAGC

- Variants of: B1
- PROCEDURE SUMMARY: normalized RNA/DNA level without ligand (relative to sTRSVctl = 100) (log10 (% of sTRSVctl)); ligand: hypoxanthine (xanthine aptamer); higher = less ribozyme self-cleavage, higher mRNA level
- TEST CONTEXT: HEK293T, reporter: mCherry (pCS4076), ligand present: no
VALUE KIND: normalized RNA/DNA level without ligand (log10)

AAAAUG :: 1.51
CUCGUG :: 1.81
UAACGA :: 1.69
CCCAAA :: 1.84
GCUAUA :: 1.89
AAACUU :: 1.86
GCCUCU :: 1.96
UCUACG :: 1.73
UGUAGC :: 1.8
CGCUUG :: 1.93
UAACUA :: 1.88
UACUCC :: 1.96
CGGUGG :: 1.37
UAAGAU :: 1.72
CGGCUC :: 2.04
CUAAUG :: 1.79
UUAUGU :: 1.79
GUUAGU :: 1.79
ACGAGA :: 1.14
UAUUAA :: 1.86
AGGGAU :: 1.71
CCUGCC :: 2.01
GAGGGG :: 1.34
GAGCAU :: 1.72
CCUGCG :: 1.86
CAUAGA :: 1.77
UUUAGC :: 1.88
ACAGUC :: 1.95
CUGGGU :: 1.88
AGAAGC :: 1.7
CGGCAU :: 1.56
CUCCAU :: 1.89
CGAAUA :: 1.68
UAUCCA :: 1.9
ACGUAG :: 1.16
UACAAG :: 1.58
GGCAUG :: 1.45
CGUUGU :: 1.89
UCUAAA :: 1.79
CUUAGU :: 1.91
CAGGGU :: 1.75
AUUAAA :: 1.78
UUAUGA :: 1.64
AUAUAC :: 1.8
GUUUAU :: 1.83
UAUCCG :: 1.71
UGCCAA :: 1.84
CUACAG :: 1.73
ACCCUA :: 1.85
